molecular target: PEG-3 (UniProt Q6IN02); assay: Peg3 promoter luciferase inhibitors, potency, dose response, cell-based, HeLa, CREF/GAPDH counter-screen panel (AID 624167); settings: CREF/GAPDH counter-screens; HeLa PEG-Prom luciferase reporter, overnight, run 2, dose range 1, at 100 µM (top of the series) unless noted
Sequence (Q6IN02 whole entry, looked up): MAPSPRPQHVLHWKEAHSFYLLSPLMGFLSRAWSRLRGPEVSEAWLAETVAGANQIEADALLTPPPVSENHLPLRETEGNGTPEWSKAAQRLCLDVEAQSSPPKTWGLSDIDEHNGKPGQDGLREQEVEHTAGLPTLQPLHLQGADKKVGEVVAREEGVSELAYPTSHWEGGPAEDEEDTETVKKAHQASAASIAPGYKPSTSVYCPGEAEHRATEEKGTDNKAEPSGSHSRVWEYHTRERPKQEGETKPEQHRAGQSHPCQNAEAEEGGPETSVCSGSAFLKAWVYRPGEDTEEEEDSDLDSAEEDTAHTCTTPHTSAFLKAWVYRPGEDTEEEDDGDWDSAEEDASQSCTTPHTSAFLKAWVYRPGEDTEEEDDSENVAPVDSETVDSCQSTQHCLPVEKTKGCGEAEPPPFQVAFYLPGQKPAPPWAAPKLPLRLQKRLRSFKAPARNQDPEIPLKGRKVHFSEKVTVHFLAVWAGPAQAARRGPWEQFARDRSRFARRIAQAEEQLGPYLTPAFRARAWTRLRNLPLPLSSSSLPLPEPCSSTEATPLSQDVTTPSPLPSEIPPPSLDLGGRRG
MEASURED_ENDPOINT: inhibition (%)
Give bare numbers, in %.

CCCc1nc2oc3c(NCCCN(C)C)ncnc3c2c2c1CCCC2
101
CCN1CCN(Cc2ccc(NC(=O)c3cc(NC(=O)c4ccno4)cc(OC)c3)cc2C(F)(F)F)CC1
102
O=C1c2ccccc2C(=O)C12OC2c1ccc(Cl)cc1Cl (stereo not given)
102
N/C(=N\OC(=O)c1ccccc1)C(Cc1ccccc1)C(=O)NOC(=O)c1ccccc1 (stereo not given)
99.1
Cc1nn(-c2nc3ccccc3[nH]2)c(=O)c2ccccc12
96.4
C[C@@]12C(=O)Nc3cc(Cl)ccc3C(=O)N1[C@H]1c3cc(Cl)ccc3OC[C@@H]1[C@@H]2c1ccccc1
36.4
CC(=O)Nc1cccc(-c2ccnc3c2CC(C)(C(=O)Nc2cccc(OC(F)(F)F)c2)O3)c1 (stereo not given)
77.1
Cc1ccc(-c2nnc(N3CCN(c4ccccn4)CC3)c3ccccc23)cc1
101
CC1CCN(c2ccc(-c3cccc(NC(=O)C(F)(F)F)c3)nn2)CC1
94.5

Now look at this one.
Asked: Fill in: inhibition of COc1ccc(CC(N)c2csc(Nc3cccc(OC)n3)n2)cc1 (stereo not given) is ___
Given back: 100
